# Test system: 168753-222-R-J1-PDC complex spheroid viability
# Measurement description: Anticancer human tumor 168753-222-R-J1-PDC patient-derived bladder carcinoma cell line growth inhibition [CLK]
# Experimental context: second compound 10 µM; first compound 3.16 µM; stronger effect = lower value
Define the label as True when viability, T/C is strictly less than 10% and as False in all remaining cases.

Below, 8 compounds whose answers are already recorded.
* COc1ccc([C@@H](O)c2cc(-c3ncnc4cc(N5CCOCC5)ccc34)c(F)cc2Cl)nn1 + CNC(=O)c1ccc(Nc2nc(OC3CCCC3)c3c(-c4ccc5nc(C)oc5c4)c[nH]c3n2)c(OC)c1 | False
* COC1C=CCC(C)C(C)S(=O)(=O)NC(=O)c2ccc3c(c2)N(CC2CCC21)CC1(CCCc2cc(Cl)ccc21)CO3 (stereo not given) + CNC(=O)c1ccc(Nc2nc(OC3CCCC3)c3c(-c4ccc5nc(C)oc5c4)c[nH]c3n2)c(OC)c1 | False
* Nc1ccccc1NC(=O)c1ccc(CNC(=O)OCc2cccnc2)cc1 + CN1CCN(c2cc(C(=O)Nc3cc4cc(-c5cnn(C)c5)ccc4cn3)ccn2)CC1 | True
* Nc1ccccc1NC(=O)c1ccc(CNC(=O)OCc2cccnc2)cc1 + CNC(=O)c1ccc(Nc2nc(OC3CCCC3)c3c(-c4ccc5nc(C)oc5c4)c[nH]c3n2)c(OC)c1 | False
* CC1COCCN1c1cc(C2(S(C)(=N)=O)CC2)nc(-c2ccnc3[nH]ccc23)n1 (stereo not given) + CNC(=O)c1ccc(Nc2nc(OC3CCCC3)c3c(-c4ccc5nc(C)oc5c4)c[nH]c3n2)c(OC)c1 | False
* C#Cc1c(F)ccc2cc(O)cc(-c3ncc4c(N5CC6CCC(C5)N6)nc(OCC56CCCN5CC(F)C6)nc4c3F)c12 (stereo not given) + CN1CCN(c2cc(C(=O)Nc3cc4cc(-c5cnn(C)c5)ccc4cn3)ccn2)CC1 | True
* CC(CO)NC(=O)c1cc(-c2ccc(Cl)cc2)nn(-c2cnn(C)c2)c1=O (stereo not given) + CNC(=O)c1ccc(Nc2nc(OC3CCCC3)c3c(-c4ccc5nc(C)oc5c4)c[nH]c3n2)c(OC)c1 | False
* CC1(C)CCC(CN2CCN(c3ccc(C(=O)NS(=O)(=O)c4ccc(NCC5CCOCC5)c([N+](=O)[O-])c4)c(Oc4cnc5[nH]ccc5c4)c3)CC2)=C(c2ccc(Cl)cc2)C1 + CNC(=O)c1ccc(Nc2nc(OC3CCCC3)c3c(-c4ccc5nc(C)oc5c4)c[nH]c3n2)c(OC)c1 | False

--- query ---
is_below(viability, T/C, 10%) for C=C(F)C(=O)N1CCN(c2nc(OCC3CCCN3C)nc3c2CCN(c2cccc4cccc(Cl)c24)C3)CC1CC#N (stereo not given) + CN1CCN(c2cc(C(=O)Nc3cc4cc(-c5cnn(C)c5)ccc4cn3)ccn2)CC1 ?
True

---

# System: 168753-222-R-J1-PDC complex spheroid viability
# Measurement description: Anticancer human tumor 168753-222-R-J1-PDC cell line growth inhibition [CLK];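 note: luminescence signal used as surrogate for viable cell amount; viability measured after seven days of drug exposure; 100% = DMSO vehicle control wells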
# Experimental context: second compound 0.1 µM; first compound 0.03 µM; stronger effect = lower value
Reported endpoint: viability, T/C (%)
Give just the number in %; leave the unit off.

Below, each entry is followed by its recorded viability, T/C result.
- C=CC(=O)Nc1cc(Nc2nccc(-c3cn(C)c4ccccc34)n2)c(OC)cc1N(C)CCN(C)C + CNC(=O)c1ccc(Nc2nc(OC3CCCC3)c3c(-c4ccc5nc(C)oc5c4)c[nH]c3n2)c(OC)c1: 76.8
- NC(=O)C(=Cn1cnc(-c2cc(C(F)(F)F)cc(C(F)(F)F)c2)n1)c1cncnc1 + CNC(=O)c1ccc(Nc2nc(OC3CCCC3)c3c(-c4ccc5nc(C)oc5c4)c[nH]c3n2)c(OC)c1: 121
- CC(C)CC(NC(=O)C(Cc1ccccc1)NC(=O)c1cnccn1)B(O)O (stereo unspecified) + CN1CCN(c2cc(C(=O)Nc3cc4cc(-c5cnn(C)c5)ccc4cn3)ccn2)CC1: 0.27
- CC(C)CC(NC(=O)C(Cc1ccccc1)NC(=O)c1cnccn1)B(O)O (stereo unspecified) + CNC(=O)c1ccc(Nc2nc(OC3CCCC3)c3c(-c4ccc5nc(C)oc5c4)c[nH]c3n2)c(OC)c1: 0.27
- NC(=O)C(=Cn1cnc(-c2cc(C(F)(F)F)cc(C(F)(F)F)c2)n1)c1cncnc1 + CN1CCN(c2cc(C(=O)Nc3cc4cc(-c5cnn(C)c5)ccc4cn3)ccn2)CC1: 25.2

// next entry
What value of viability, T/C has been recorded for this entry: C=CC(=O)Nc1cc(Nc2nccc(-c3cn(C)c4ccccc34)n2)c(OC)cc1N(C)CCN(C)C + CN1CCN(c2cc(C(=O)Nc3cc4cc(-c5cnn(C)c5)ccc4cn3)ccn2)CC1
77
